# System: H460 cells
# experimental-protocol: alamarBlue H460 cell assay (antiproliferative/cytotoxicity)
# Type: cell-based
# experimental-context: NCI-H460; H460 human lung carcinoma cells
pEC50: −log10 of the molar value.
Rule: Condition met for pEC50 not less than 6, Condition not met for anything less.

Some solved entries appear below for comparison.
CCc1ncnc(-c2ccnc(C)c2)c1C#Cc1cnc(C)c(NS(=O)(=O)c2ccccc2C)c1
Condition met
CCc1ncnc(-c2ccnc(C)c2)c1C#Cc1cnc(C)c(NS(=O)(=O)c2ccc(OC)cc2OC)c1
Condition met
CCc1ncnc(-c2ccccc2OC)c1C#Cc1cnc(C)c(NS(C)(=O)=O)c1
Condition not met
CCc1ncnc(-c2ccnc(C(C)(C)C)c2)c1C#Cc1cnc(C)c(NS(C)(=O)=O)c1
Condition met

I'd appreciate it if you could say whether CCc1ncnc(-c2ccnc(C)c2)c1C#Cc1cnc(C)c(NS(=O)(=O)c2ccc(OC)cc2)c1 has pEC50 at least equal to 6. Condition met

State whether the measured pEC50 reaches 6, counting equality as reaching it, for Cc1ncc(C#Cc2c(C)ncnc2-c2ccc(C(=O)N3CCN(C)CC3)c(F)c2)cc1NS(C)(=O)=O Condition not met

// inclusive: pEC50 at least 6? input: CCc1nc(N)nc(-c2cccc(F)c2)c1C#Cc1cnc(C)c(NS(C)(=O)=O)c1 Condition met

###

# Test system: BT474 cells
# experimental-protocol: alamarBlue BT474 cell assay (antiproliferative/cytotoxicity)
# Type: cell-based
# experimental-context: BT-474 human breast cancer cell line, 5-6 days incubation
Form field: EC50 (one value per entry).
Just the number in nM, nothing appended.

CNC(=O)c1ccc(-c2nc(N)nc(C)c2C#Cc2cnc(Cl)c(NS(C)(=O)=O)c2)cc1Cl
53
CCc1nc(N)nc(-c2ccc(C(=O)N3CCN(C)CC3)c(F)c2)c1C#Cc1cnc(C)c(NS(=O)(=O)c2ccc(F)cc2F)c1
127
CCc1ncnc(-c2cccc(C#N)c2)c1C#Cc1cnc(C)c(NS(C)(=O)=O)c1
302

Next:
// query EC50 value for entry CCc1nc(N)nc(-c2cccc(C#N)c2)c1C#Cc1cnc(C)c(NS(=O)(=O)c2ccc(F)cc2F)c1 107

###

# system: PI3Kalpha (Homo sapiens, UniProt P42336)
# Construct: His (N)
# Sequence (P27986 whole entry): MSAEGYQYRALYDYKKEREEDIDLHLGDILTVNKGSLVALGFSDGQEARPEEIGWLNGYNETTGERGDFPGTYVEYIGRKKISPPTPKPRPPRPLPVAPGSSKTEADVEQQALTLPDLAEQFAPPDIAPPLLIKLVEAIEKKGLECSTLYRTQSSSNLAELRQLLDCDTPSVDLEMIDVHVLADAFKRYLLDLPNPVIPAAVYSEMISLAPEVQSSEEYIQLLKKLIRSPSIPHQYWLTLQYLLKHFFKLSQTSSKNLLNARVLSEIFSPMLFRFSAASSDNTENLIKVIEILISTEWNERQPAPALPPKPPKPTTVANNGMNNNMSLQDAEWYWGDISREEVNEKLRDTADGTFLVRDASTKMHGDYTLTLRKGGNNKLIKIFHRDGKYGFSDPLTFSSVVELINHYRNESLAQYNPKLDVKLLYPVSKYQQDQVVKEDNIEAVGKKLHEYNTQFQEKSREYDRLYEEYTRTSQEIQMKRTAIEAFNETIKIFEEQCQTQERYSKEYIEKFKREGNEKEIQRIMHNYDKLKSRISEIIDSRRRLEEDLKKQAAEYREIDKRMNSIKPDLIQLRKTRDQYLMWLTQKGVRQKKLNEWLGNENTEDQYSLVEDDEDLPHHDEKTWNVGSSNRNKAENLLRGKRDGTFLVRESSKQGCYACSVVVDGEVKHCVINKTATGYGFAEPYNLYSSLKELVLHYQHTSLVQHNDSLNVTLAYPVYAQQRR
# Sequence (P42336 whole entry): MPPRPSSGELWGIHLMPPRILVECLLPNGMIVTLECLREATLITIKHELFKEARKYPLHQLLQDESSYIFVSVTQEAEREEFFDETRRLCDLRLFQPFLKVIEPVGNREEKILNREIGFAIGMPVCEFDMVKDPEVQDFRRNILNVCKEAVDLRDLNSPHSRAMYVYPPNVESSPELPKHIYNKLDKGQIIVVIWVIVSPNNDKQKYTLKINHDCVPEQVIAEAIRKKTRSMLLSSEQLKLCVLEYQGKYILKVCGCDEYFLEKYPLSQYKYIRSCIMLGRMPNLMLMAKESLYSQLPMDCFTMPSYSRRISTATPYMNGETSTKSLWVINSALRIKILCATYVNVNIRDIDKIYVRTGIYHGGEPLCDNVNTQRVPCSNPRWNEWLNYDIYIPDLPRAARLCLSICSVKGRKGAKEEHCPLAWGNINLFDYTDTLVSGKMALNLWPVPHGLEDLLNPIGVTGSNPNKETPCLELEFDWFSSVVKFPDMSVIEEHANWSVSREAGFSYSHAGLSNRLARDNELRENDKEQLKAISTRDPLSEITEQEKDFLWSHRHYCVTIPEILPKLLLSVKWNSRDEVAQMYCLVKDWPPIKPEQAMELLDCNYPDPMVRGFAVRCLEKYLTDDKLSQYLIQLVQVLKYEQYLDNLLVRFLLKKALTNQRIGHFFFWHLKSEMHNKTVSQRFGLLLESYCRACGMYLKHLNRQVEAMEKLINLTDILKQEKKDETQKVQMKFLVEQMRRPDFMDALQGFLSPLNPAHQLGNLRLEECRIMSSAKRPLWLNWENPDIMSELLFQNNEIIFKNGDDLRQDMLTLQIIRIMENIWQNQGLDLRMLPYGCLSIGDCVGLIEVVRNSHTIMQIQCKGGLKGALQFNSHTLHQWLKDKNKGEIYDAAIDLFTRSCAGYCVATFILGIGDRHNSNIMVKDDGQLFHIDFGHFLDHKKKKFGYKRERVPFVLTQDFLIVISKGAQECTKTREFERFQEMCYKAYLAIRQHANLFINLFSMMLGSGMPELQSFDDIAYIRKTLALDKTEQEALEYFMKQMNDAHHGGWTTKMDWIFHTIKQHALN
# experimental-protocol: Inhibition of PI3Kalpha-induced PIP-2 phosphorylation (filter-binding assay, 33P-ATP)
# experimental-context: PI3 Kinase alpha (p85alpha/His-p110alpha), 1 μM ATP; read-out: IC50 PI3Kα
pIC50: −log10 of the molar value.
Kind request: treat 9 as inclusive, so pIC50 at 9 or higher is 1 (yes), anything lower is 0 (no).

CCc1ncnc(-c2ccc(OC)c(OC)c2C)c1C#Cc1cnc(C)c(NS(C)(=O)=O)c1
0 (no)
CCc1ncnc(-c2ccnc(C)c2)c1C#Cc1cnc(C)c(NS(=O)(=O)c2c(F)cccc2F)c1
1 (yes)
CCc1ncnc(-c2cc(C#N)ccc2F)c1C#Cc1cnc(C)c(NS(C)(=O)=O)c1
0 (no)
CCc1ncnc(-c2ccc(C(=O)N(C)C)cc2F)c1C#Cc1cnc(C)c(NS(C)(=O)=O)c1
0 (no)
CCc1ncnc(-c2cc(CN)ccc2F)c1C#Cc1cnc(C)c(NS(C)(=O)=O)c1
0 (no)

Determine whether this compound has pIC50 no lower than 9: Cc1ncc(C#Cc2c(C)ncnc2-c2ccc(C(=O)N3CCN(C)CC3)c(F)c2)cc1NS(C)(=O)=O 0 (no)

Record CCc1ncnc(-c2ccnc(C)c2)c1C#Cc1cnc(C)c(NS(=O)(=O)c2ccc(OC)cc2)c1 ; criterion: pIC50 no lower than 9. Met? 0 (no)

Does CCc1ncnc(-c2ccc(CNC(=O)OC(C)(C)C)nc2)c1C#Cc1cnc(C)c(NS(=O)(=O)c2ccccc2)c1 have a reported pIC50 of at least 9? 1 (yes)

Could you tell me if the measured pIC50 of CCc1ncnc(-c2ccnc(C)c2)c1C#Cc1cnc(C)c(NS(=O)(=O)c2cccnc2)c1 reaches 9 or more? 1 (yes)

Does CCc1ncnc(-c2ccnc(C)c2)c1C#Cc1cnc(C)c(NS(=O)(=O)c2ccc(C)cc2C)c1 have a reported pIC50 of at least 9? 0 (no)

The origin of these recorded values is patent US8466162B2.
